- Experimental System: Glucocorticoid receptor (Homo sapiens)
- Run Description: Transcriptional activation in CV-1 cells expressing human glucocorticoid receptor compared to Dexamethasone
- Format: functional, cell-based
Quantity Name: Efficacy (%)
Reply with just the number (in %).

- Compound: "C=CCC1Oc2cccc(O)c2-c2ccc3c(c21)C(C)=CC(C)(C)N3 (stereo not given)"
  Unit Annotation: "%"
  Efficacy: 29
- Compound: "C=CCOc1cccc2c1-c1ccc3c(c1C(CC=C)O2)C(C)=CC(C)(C)N3 (stereo not given)"
  Unit Annotation: "%"
  Efficacy: 0

Please report the recorded Efficacy for C#CCOc1cccc2c1-c1ccc3c(c1C(CC=C)O2)C(C)=CC(C)(C)N3 (stereo not given) .
9

Please report the recorded Efficacy for C=CCC1Oc2cccc(COC)c2-c2ccc3c(c21)C(C)=CC(C)(C)N3 (stereo not given) .
5

Please report the recorded Efficacy for C=CCC1Oc2cccc(C#N)c2-c2ccc3c(c21)C(C)=CC(C)(C)N3 (stereo not given) .
87
